study-system: neuronal nicotinic acetylcholine receptors
method-notes: Displacement of [3H]-cytisine from nicotinic acetylcholine receptors, crude synaptic membrane preparations from whole rat brain
cond: [3H]-cytisine 1.25 nM, whole rat brain membranes, 60 minutes at 4° C.; IC50 converted to Ki by Cheng and Prusoff; read-out: Binding to Neuronal Nicotinic Acetylcholine Receptors (Binding)
Where a name gives a salt, the structure may show the parent alone.
Measured Ki values are reported for all entries that follow.
observation-type: Ki (nM)

- compound: "CCCc1cc(C23CCCN2CCC3)on1.Cl [Example 14, hydrochloride salt]"
  observation-type: "Ki"
  u: "nM"
  experimental-value: 1.7
- compound: "Cc1cc(C23CCCN2CCC3)[nH]n1 [Example 2, dihydrochloride]"
  observation-type: "Ki"
  u: "nM"
  experimental-value: 70
- compound: "Cl.Fc1ccc(C23CCCN2CCC3)cn1 [Example 12, hydrochloride salt]"
  observation-type: "Ki"
  u: "nM"
  experimental-value: 0.27
- compound: "Cl.Clc1cc(C23CCCN2CCC3)cnc1Cl [Example 8, hydrochloride]"
  observation-type: "Ki"
  u: "nM"
  experimental-value: 0.055
- compound: "Cc1cc(C23CCCN2CCC3)cnc1F.Cl [Example 18, hydrochloride salt]"
  observation-type: "Ki"
  u: "nM"
  experimental-value: 0.11
- compound: "Cc1ccncc1C12CCCN1CCC2.Cl [Example 24, hydrochloride salt]"
  observation-type: "Ki"
  u: "nM"
  experimental-value: 72
- compound: "Clc1ccc(C23CCCN2CCC3)c(Cl)n1 [Example 11, hydrochloride salt]"
  observation-type: "Ki"
  u: "nM"
  experimental-value: 1420
- compound: "Cl.Fc1ncc(C23CCCN2CCC3)cc1Cl [Example 23, hydrochloride salt]"
  observation-type: "Ki"
  u: "nM"
  experimental-value: 0.23
- compound: "Cl.c1cncc(C23CCCN2CCC3)c1 [Example 3, hydrochloride]"
  observation-type: "Ki"
  u: "nM"
  experimental-value: 0.38
- compound: "CCc1cc(C23CCCN2CCC3)on1.Cl [Example 13, hydrochloride salt]"
  observation-type: "Ki"
  u: "nM"
  experimental-value: 1.4
- compound: "Cc1cc(C23CCCN2CCC3)on1.Cl [Example 1, hydrochloride]"
  observation-type: "Ki"
  u: "nM"
  experimental-value: 0.97
- compound: "c1ccc(Cc2cc(C34CCCN3CCC4)on2)cc1 [Example 15, hydrochloride salt]"
  observation-type: "Ki"
  u: "nM"
  experimental-value: 4
